ASSAY_TARGET: human Brd4 BD1 (Homo sapiens)
EXPERIMENT_DESCRIPTION: HTRF assay, inhibition of BD binding to H4ac4 peptide
Set-up: human Brd4 BD1 (residues 22–204); His tag with TEV site (N, cleaved yes); made in house; host or cells: E. coli BL21(DE3)
EXPERIMENTAL_CONTEXT: HTRF, H4ac4 peptide
REPORTED_PROPERTY: IC50

Find the recorded IC50 belonging to O=C1c2ccccc2Sc2cc(-c3noc(-c4cnccn4)n3)ccc2N1C1CC1 and report it.
~40 µM

FYI, the data here is from paper PMC5454392.
